# test target: T1, recombinant H7-HA, A/Netherlands/219/2003 (H7N7) (Influenza A virus …, UniProt Q6VMK1)
# T1 construct: source: bought: Protein Sciences
# assay protocol: SPR; data not shown: sdAbs on immobilised recombinant H3-HA and H7-HA
# condition: both partners purified

| binder | binding result |
| --- | --- |
| R1a-E6 (VHH, source: E. coli WK6 periplasm, purified (Talon IMAC, Superdex 75 SEC)) VHH: QVQLVESGGGLVQPGGSLRLSCAASGFTLGAYAIAWFRQAPGKEREGVSCISPSDSFTEYGDSVKGRFTVSRDNAKNTVYLQMNSLQPEDTAVYYCAADPVCTAGWYRPSRFDLWGQGTQVTVSS | no binding |
| R2a-H9 (VHH, source: E. coli WK6 periplasm, purified (Talon IMAC, Superdex 75 SEC)) VHH: QVQLVESGGGLVQPGGSLRLSCAASTNIASFYTMGWYRQTPGQQRDVVAVIGNGGNTNYADSVKGRFTISRDGAKNTAHLQMNSLKPEDTDVYYCKASGPGGVILWGQGTQVTVSS | no binding |
| R1a-G6 (VHH, source: E. coli WK6 periplasm, purified (Talon IMAC, Superdex 75 SEC)) VHH: QVQLVESGGGLVQSGGSLRLSCAASGSMSRIITMGWYRQAPGMERELVAVIGNNDNTVYGDSVQGRFTVSRDNAKNTAYLQMNSLNAEDTAMYYCKISTLTPPHEYWGQGTQVTVSS | no binding |
| R2b-E8 (VHH, source: E. coli WK6 periplasm, purified (Talon IMAC, Superdex 75 SEC)) VHH: QVQLVESGGGLVQPGGSLRLSCAASGSFFSRYRMGWYRQAPGEQRELVAGITYDDSTNYAGSVKGRFTISRDNAKNTVHLQMNSLKPEDTAVYYCNLNPPGNLYWGQGTQVTVSS | no binding |

Data provenance: paper PMC4118869
